- Tested system: HPK1 (Homo sapiens, UniProt Q92918)
- Construct: purchased SignalChem M23-11G
- Sequence (Q92918 1-346 limits assumed): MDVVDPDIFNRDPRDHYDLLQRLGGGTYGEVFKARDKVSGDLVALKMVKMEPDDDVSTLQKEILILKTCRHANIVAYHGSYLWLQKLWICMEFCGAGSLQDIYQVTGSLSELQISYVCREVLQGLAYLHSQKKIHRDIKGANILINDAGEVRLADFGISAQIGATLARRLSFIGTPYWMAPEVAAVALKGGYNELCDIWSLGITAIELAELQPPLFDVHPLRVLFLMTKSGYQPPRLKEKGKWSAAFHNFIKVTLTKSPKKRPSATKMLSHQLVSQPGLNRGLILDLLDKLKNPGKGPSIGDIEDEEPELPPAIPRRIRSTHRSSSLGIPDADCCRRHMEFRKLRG
- Experimental details: HPK1 Inhibition Assay (kinase reaction, Caliper capillary electrophoresis)
- Assay type: biochemical
- Cond: 0.625 nM HPK1, 22 μM ATP, 11 concentrations; read-out: HPK1 IC50
Attribute measured: IC50

Look over these answered cases.
>  <Molecule>
CC1(C)OC(=O)c2ccc(Nc3ncc(-c4nc(C5CC5)no4)c(Nc4ccc5[nH]ncc5c4)n3)cc21

>  <Attribute measured>
IC50

>  <Assay value>
50 to 250 nM

$$$$
>  <Molecule>
CCCCc1noc(-c2cnc(Nc3ccc4c(c3)C(C)(C)OC4=O)nc2N[C@H](CO)c2ccccc2)n1

>  <Attribute measured>
IC50

>  <Assay value>
< 50 nM

$$$$

Kindly consider the entry below.
Item `CC1(C)OC(=O)c2ccc(Nc3ncc(C(=O)NCC4CC(F)(F)C4)c(N[C@H](CO)c4ccccc4)n3)cc21` was tested on HPK1 (Homo sapiens, UniProt Q92918); the reported IC50 is < 50 nM

* * *

- Tested system: HPK1 (Homo sapiens, UniProt Q92918)
- Construct: purchased SignalChem M23-11G
- Experimental details: HPK1 Inhibition Assay (kinase reaction, Caliper capillary electrophoresis)
- Format: biochemical
- Cond: 0.625 nM HPK1, 22 μM ATP, 11 concentrations; read-out: HPK1 IC50
Attribute measured: IC50

>  <Compound>
Cc1noc(-c2cnc(Nc3ccc4c(c3)C(C)(C)OC4=O)nc2NCc2ccccc2C(C)(C)O)n1

>  <IC50>
50 to 250 nM

$$$$
>  <Compound>
CC1(C)OC(=O)c2ccc(Nc3ncc(-c4n[nH]c(=O)o4)c(N[C@H](CO)c4ccccc4)n3)cc21

>  <IC50>
< 50 nM

$$$$

// recorded IC50 for `CC1(C)OC(=O)c2ccc(Nc3cc(N[C@H](CO)c4ccccc4)c(-c4nnc(C5(C#N)CC5)o4)cn3)nc21` : < 50 nM

// recorded IC50 for `CC1(C)OC(=O)c2ccc(Nc3ncc(C(=O)NCCCn4ccnc4)c(N[C@H](CO)c4ccccc4)n3)cc21` : < 50 nM

* * *

- Tested system: HPK1 (Homo sapiens, UniProt Q92918)
- Construct: purchased SignalChem M23-11G
- Experimental details: HPK1 Inhibition Assay (kinase reaction, Caliper capillary electrophoresis)
- Format: biochemical
- Cond: 0.625 nM HPK1, 22 μM ATP, 11 concentrations; read-out: HPK1 IC50
Attribute measured: IC50

Look over these answered cases.
>  <Compound>
C#CCNC(=O)c1cnc(Nc2ccc3c(c2)C(C)(C)OC3=O)nc1N[C@H](CO)c1ccccc1

>  <IC50>
< 0.05 µM

$$$$
>  <Compound>
CC(C)(CCCCO)c1noc(-c2cnc(Nc3ccc4c(c3)C(C)(C)OC4=O)nc2N[C@H](CO)c2ccccc2)n1

>  <IC50>
< 0.05 µM

$$$$
>  <Compound>
CC1(C)OC(=O)c2ccc(Nc3cc(N[C@H](CO)C4CC4)c(-c4nc(C5CC5)no4)cn3)cc21

>  <IC50>
0.05 to 0.25 µM

$$$$
>  <Compound>
CC1(C)OC(=O)c2ccc(Nc3ncc(C(=O)N[C@H]4C[C@@H]4c4ccccc4)c(N[C@H](CO)c4ccccc4)n3)cc21

>  <IC50>
0.05 to 0.25 µM

$$$$
>  <Compound>
CC1(C)OC(=O)c2ccc(Nc3ncc(-c4nc(N5CCOCC5)no4)c(N[C@H](CO)c4ccccc4)n3)cc21

>  <IC50>
< 0.05 µM

$$$$
>  <Compound>
CC1(C)OC(=O)c2ccc(Nc3cc(N[C@H](CO)c4ccccc4)c(-c4nc(C5CC5)no4)cn3)cc21

>  <IC50>
0.05 to 0.25 µM

$$$$

// recorded IC50 for CC1(C)OC(=O)c2ccc(Nc3ncc(C(=O)NNC(=O)C(C)(O)C(F)(F)F)c(N[C@H](CO)c4ccccc4)n3)cc21 (some centres unmarked) : 0.05 to 0.25 µM

// recorded IC50 for `CN(C)C12CC(c3noc(-c4cnc(Nc5ccc6c(c5)C(C)(C)OC6=O)nc4N[C@H](CO)c4ccccc4)n3)(C1)C2` : < 0.05 µM

// recorded IC50 for `CC1(C)OC(=O)c2ccc(Nc3ncc(-c4nc(-c5cccnc5)no4)c(N[C@H](CO)c4ccccc4)n3)cc21` : < 0.05 µM

// recorded IC50 for `CC1(C)OC(=O)c2ccc(Nc3ncc(-c4nnc(-c5cccnn5)o4)c(N[C@H](CO)c4ccccc4)n3)cc21` : < 0.05 µM

// recorded IC50 for `COC(=O)NC12CC(c3noc(-c4cnc(Nc5ccc6c(c5)C(C)(C)OC6=O)nc4N[C@H](CO)c4ccccc4)n3)(C1)C2` : < 0.05 µM

* * *

IC50 values by entry
- Tested system: HPK1 (Homo sapiens, UniProt Q92918)
- Construct: purchased SignalChem M23-11G
- Experimental details: HPK1 Inhibition Assay (kinase reaction, Caliper capillary electrophoresis)
- Format: biochemical
- Cond: 0.625 nM HPK1, 22 μM ATP, 11 concentrations; read-out: HPK1 IC50

>  <Molecule>
CC1(C)OC(=O)c2ccc(Nc3ncc(-c4nnc(C5(C(F)(F)F)CC5)o4)c(N[C@H](CO)c4ccccc4)n3)cc21

>  <Tested system>
HPK1 (Homo sapiens, UniProt Q92918)

>  <IC50>
< 50 nM

$$$$

// recorded IC50 for CC1(C)OC(=O)c2ccc(Nc3ncc(-c4nnc(C(C)(O)C(F)(F)F)o4)c(N[C@H](CO)c4ccccc4)n3)cc21 (stereo partly shown) : < 50 nM

// recorded IC50 for `CC1(C)OC(=O)c2ccc(Nc3ncc(C4=NCC5(CCOCC5)O4)c(N[C@H](CO)c4ccccc4)n3)cc21` : < 50 nM

// recorded IC50 for `CC1(C)OC(=O)c2ccc(Nc3ncc(C(=O)NNC(=O)c4cccnc4)c(N[C@H](CO)c4ccccc4)n3)cc21` : < 50 nM

// recorded IC50 for `CC(C)(O)C(=O)NNC(=O)c1cnc(Nc2ccc3c(c2)C(C)(C)OC3=O)nc1N[C@H](CO)c1ccccc1` : 50 to 250 nM

// recorded IC50 for `Cc1cnc(CNC(=O)c2cnc(Nc3ccc4c(c3)C(C)(C)OC4=O)nc2N[C@H](CO)c2ccccc2)cn1` : < 50 nM

// recorded IC50 for `CC1(C)OC(=O)c2ccc(Nc3ncc(-c4nc(-c5cccc(F)c5)no4)c(N[C@H](CO)c4ccccc4)n3)cc21` : 50 to 250 nM

// recorded IC50 for `Cc1noc(-c2cnc(Nc3ccc4c(c3)C(C)(C)OC4=O)nc2Nc2ccc3[nH]ncc3c2)n1` : 50 to 250 nM

// recorded IC50 for `CC1(C)OC(=O)c2ccc(Nc3ncc(-c4nnc(C5(OC(=O)N6CC(F)(F)C6)CC5)o4)c(N[C@H](CO)c4ccccc4)n3)cc21` : 50 to 250 nM

// recorded IC50 for `CN(C)CCCNC(=O)c1cnc(Nc2ccc3c(c2)C(C)(C)OC3=O)nc1N[C@H](CO)c1ccccc1` : < 50 nM
